System: Mus musculus
assay-method-text: In vivo optimal i.p. dose administered on days 1, 5, and 9 after i.p. inoculation of (10E6) P388 leukemia cells.
Format: functional
# met = OD below 9 mg/kg/day (exclusive); not met = OD at/above 9 mg/kg/day

Example cases with answers are listed next.
CN(C)CCNC(=O)c1cc(Cl)cc2c(N)c3ccccc3nc12 not met
COc1ccc2c(N)c3ccccc3nc2c1C(=O)NCCN(C)C not met
Cc1cc(C(=O)NCCN(C)C)c2nc3ccccc3c(N)c2c1 not met
Cc1ccc2c(N)c3cccc(C(=O)NCCN(C)C)c3nc2c1 met

Bench note: check whether `Cc1ccc2nc3c(C(=O)NCCN(C)C)cccc3c(N)c2c1` shows OD below 9 mg/kg/day
not met

A record lists `CN(C)CCNC(=O)c1cccc2c(N)c3cc(Cl)ccc3nc12` . Is its OD below 9 mg/kg/day?
not met

meta.source: ChEMBL document CHEMBL1123425
